Each recorded value in this set is attributed to paper PMC9684503.

# Target System: rat VMAT2-His (Rattus norvegicus)
# Construct: The ORF of rat VMAT2 was subcloned into a pFastBac vector; His; made in house; host or cells: Sf9 insect cells (baculovirus)
# Sequence (Q01827 whole entry): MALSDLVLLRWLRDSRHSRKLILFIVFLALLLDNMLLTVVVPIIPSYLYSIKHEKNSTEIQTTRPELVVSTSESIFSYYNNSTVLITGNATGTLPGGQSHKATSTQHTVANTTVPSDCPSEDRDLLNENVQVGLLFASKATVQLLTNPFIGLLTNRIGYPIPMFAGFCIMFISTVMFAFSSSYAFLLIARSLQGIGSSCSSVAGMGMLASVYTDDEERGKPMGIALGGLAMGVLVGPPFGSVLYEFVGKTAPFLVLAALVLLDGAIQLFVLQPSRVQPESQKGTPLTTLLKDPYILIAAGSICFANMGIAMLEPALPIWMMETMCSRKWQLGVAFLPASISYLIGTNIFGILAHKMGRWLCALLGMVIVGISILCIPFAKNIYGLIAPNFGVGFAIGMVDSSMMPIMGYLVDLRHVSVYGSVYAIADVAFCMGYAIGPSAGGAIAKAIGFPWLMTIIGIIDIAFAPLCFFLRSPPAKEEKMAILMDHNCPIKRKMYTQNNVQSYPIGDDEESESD
# Assay Explanation: Differential scanning fluorimetry (DSF) with CPM dye: change of melting temperature of purified VMAT2
# Type: binding
# Condition Label: Table S2 dose response, compound 10 µM; read-out: ΔTm
Where a name gives a salt, the structure may show the parent alone.
Reported ΔTm at 10 µM by item:

Compound	Target System	Observed
COc1cc2c(cc1OC)C1CC(=O)C(CC(C)C)CN1CC2 (stereo not shown)	rat VMAT2-His (Rattus norvegicus)	6.86 °C
CN1CCC(=C2c3ccccc3Sc3ccccc32)CC1 [Pimethixene maleate]	rat VMAT2-His (Rattus norvegicus)	0.15 °C
CC(C)COCC(CN(Cc1ccccc1)c1ccccc1)N1CCCC1 (stereo not shown) [Bepridil hydrochloride]	rat VMAT2-His (Rattus norvegicus)	-1.08 °C

Task item: Quick check: ΔTm at 10 µM of CC(C)n1c(/C=C/C(O)CC(O)CC(=O)O)c(-c2ccc(F)cc2)c2ccccc21 (stereo not shown) [Fluvastatin, Fluvastatin sodium salt] ?
Reply: 0.87 °C

---

# Target System: UniProt Q05940
# Sequence (Q05940 whole entry): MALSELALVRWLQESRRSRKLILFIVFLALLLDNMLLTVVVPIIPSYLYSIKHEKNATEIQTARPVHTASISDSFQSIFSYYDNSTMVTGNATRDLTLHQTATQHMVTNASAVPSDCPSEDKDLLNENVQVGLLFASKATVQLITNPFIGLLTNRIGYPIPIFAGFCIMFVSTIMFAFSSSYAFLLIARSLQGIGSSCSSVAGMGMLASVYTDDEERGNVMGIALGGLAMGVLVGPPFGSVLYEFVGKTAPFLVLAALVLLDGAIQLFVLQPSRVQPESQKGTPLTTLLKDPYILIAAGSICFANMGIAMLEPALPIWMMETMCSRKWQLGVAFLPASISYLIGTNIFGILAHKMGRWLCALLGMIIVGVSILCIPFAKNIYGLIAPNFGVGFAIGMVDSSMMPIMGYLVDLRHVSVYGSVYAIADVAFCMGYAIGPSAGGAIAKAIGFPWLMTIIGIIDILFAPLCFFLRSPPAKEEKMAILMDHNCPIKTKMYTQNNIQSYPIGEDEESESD
# Assay Explanation: FFN206 uptake assay in transfected Hek293 cells
# Condition Label: Table S1, substrate uptake assays in transfected Hek293 cells
Where a name gives a salt, the structure may show the parent alone.
Parameter: IC50 (nM)
Hi! Could you send only the number? It should be in nM, unit omitted.

Task item: What does the record list as IC50 for O=C1Cc2cc(CCN3CCN(c4nsc5ccccc45)CC3)c(Cl)cc2N1 [Ziprasidone, Ziprasidone Hydrochloride] ?
Reply: 23

Task item: Looking for the measured IC50 of OCc1cc(C(O)CNCCCCCCOCCCCc2ccccc2)ccc1O (stereo not drawn) [Salmeterol] , can you help?
Reply: 35

Task item: Any idea what its IC50 is? The molecule is COc1cc2c(cc1OC)C1CC(=O)C(CC(C)C)CN1CC2 (stereo not drawn) [Tetrabenazine]
Reply: 18

---

# Target System: rat VMAT2-His (Rattus norvegicus)
# Construct: The ORF of rat VMAT2 was subcloned into a pFastBac vector; His; made in house; host or cells: Sf9 insect cells (baculovirus)
# Assay Explanation: Differential scanning fluorimetry (DSF) with CPM dye: change of melting temperature of purified VMAT2
# Format: binding
# Condition Label: read-out: ΔTm
Where a name gives a salt, the structure may show the parent alone.
Parameter: ΔTm at 270 µM (°C)
Please reply with the bare figure in °C and do not write the unit itself.

Compound	Parameter	Unit	Observed
C#CCN(C)[C@H](C)Cc1ccccc1 [Selegiline hydrochloride]	ΔTm at 270 µM	°C	0.36
CN1CCN(CCCN2c3ccccc3Sc3ccc(C(F)(F)F)cc32)CC1 [Trifluoperazine dihydrochloride]	ΔTm at 270 µM	°C	-1.05

Task item: Fill blank: measured ΔTm at 270 µM of the compound `COC(=O)[C@H]1[C@H]2C[C@@H]3c4[nH]c5cc(OC)ccc5c4CCN3C[C@H]2C[C@@H](OC(=O)c2cc(OC)c(OC)c(OC)c2)[C@@H]1OC` is ____.
Reply: 13.7

Task item: Quick one: ΔTm at 270 µM for CN(C)CCCN1c2ccccc2Sc2ccc(C(F)(F)F)cc21 [Triflupromazine hydrochloride] ?
Reply: -2.21

Task item: What value of ΔTm at 270 µM has been reported for the following compound? CN[C@@H]1C[C@@H](c2ccc(Cl)c(Cl)c2)c2ccccc21 [Indatraline hydrochloride]
Reply: -2.11
